Reference source for all entries: patent US20250250357A1

// values below are reported OD450
# SYSTEM_TESTED: T1, human MSLN-hFc protein (Acro, Cat. No. MSN-H5253) (human, UniProt Q13421 296-580)
# T1 construct: the method names the coated protein as human MSLN-hFc (Acro); also called human MSLN full-length protein
# ASSAY_OVERVIEW: ELISA on coated antigen, antibody 0.1 nM

[
  {
    "BINDER": "F7.44.20-H1 (scFv, not shown: small tags and cut ends, also called S009-F7.44.20 humanized antibody VH1 + VL1) scFv: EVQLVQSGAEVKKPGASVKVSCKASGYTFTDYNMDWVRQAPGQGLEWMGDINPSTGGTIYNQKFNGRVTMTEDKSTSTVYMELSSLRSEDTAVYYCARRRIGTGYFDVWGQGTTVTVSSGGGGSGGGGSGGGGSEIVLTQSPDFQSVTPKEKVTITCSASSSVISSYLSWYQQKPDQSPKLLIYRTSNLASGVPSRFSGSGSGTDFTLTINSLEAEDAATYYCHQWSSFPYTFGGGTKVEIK",
    "OD450": "0.22 OD450"
  }
]

Prompt: Answer with the recorded OD450 of F7.44.20-H14 (scFv, not shown: small tags and cut ends, also called S009-F7.44.20 humanized antibody VH2a + VL2) scFv: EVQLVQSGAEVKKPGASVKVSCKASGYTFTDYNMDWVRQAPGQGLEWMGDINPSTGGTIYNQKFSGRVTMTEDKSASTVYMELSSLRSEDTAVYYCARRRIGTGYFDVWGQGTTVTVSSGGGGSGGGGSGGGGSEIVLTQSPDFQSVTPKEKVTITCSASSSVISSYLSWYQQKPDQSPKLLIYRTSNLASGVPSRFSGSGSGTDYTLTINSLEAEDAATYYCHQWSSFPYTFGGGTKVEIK only.
Response: 0.19 OD450
